// pIC50 lookup, one value per entry
measurement.target: Phosphatidylinositol 4,5-bisphosphate 3-kinase catalytic subunit delta isoform (Homo sapiens)
Sequence (O00329 whole entry): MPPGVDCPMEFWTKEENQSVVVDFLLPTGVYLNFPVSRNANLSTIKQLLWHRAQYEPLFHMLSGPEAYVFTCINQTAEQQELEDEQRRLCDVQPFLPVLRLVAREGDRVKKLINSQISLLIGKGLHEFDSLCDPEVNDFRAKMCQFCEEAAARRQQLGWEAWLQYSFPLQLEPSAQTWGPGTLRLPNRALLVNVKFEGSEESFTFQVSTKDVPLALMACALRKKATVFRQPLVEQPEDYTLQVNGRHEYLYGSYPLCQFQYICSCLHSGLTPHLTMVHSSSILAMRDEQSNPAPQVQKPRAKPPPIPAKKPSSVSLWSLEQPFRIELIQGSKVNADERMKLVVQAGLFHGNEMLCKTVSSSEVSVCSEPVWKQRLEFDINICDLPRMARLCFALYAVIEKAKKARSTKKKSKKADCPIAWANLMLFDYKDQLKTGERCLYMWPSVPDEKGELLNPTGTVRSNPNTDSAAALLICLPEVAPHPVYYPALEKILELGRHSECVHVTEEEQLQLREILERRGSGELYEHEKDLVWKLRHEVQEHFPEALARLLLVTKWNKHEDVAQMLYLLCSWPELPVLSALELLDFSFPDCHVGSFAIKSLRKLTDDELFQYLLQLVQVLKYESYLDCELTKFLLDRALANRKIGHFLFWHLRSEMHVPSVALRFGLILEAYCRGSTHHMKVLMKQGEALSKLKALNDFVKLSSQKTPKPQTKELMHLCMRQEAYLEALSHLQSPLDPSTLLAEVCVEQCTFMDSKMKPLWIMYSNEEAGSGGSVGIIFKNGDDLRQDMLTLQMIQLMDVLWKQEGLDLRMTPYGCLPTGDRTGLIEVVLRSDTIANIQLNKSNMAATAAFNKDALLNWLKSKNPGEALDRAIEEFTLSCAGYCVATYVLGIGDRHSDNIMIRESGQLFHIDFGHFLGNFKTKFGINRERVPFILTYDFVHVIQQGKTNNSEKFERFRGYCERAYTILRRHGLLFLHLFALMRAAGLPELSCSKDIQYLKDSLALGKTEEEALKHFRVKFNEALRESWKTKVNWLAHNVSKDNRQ
method.notes: Inhibition of PI3Kdelta (unknown origin) using biotinylated PIP2 as substrate in presence of streptavidin-APC by FRET assay
Kindly note that pIC50 refers to -log10 of the concentration in mol/L and answer with the value alone.

Illustrative cases are given below, each with its answer.
>>> df
                                   compound  measured_value
0  Nc1ncnc2c1c(-c1cc(O)cc(F)c1)nn2C1Cc2ccccc2C1            8.10
1  Nc1ncnc2c1c(-c1cc(O)c(F)c(F)c1)nn2C1Cc2ccccc2C1            8.52

Q: What value of pIC50 has been recorded for this entry: Nc1ccc2c(c1)CC(n1nc(-c3cc(F)c4c(c3)NCCO4)c3c(N)ncnc31)C2 (stereo in doubt; (+)-32)
Result: 7.33

Q: What value of pIC50 has been recorded for this entry: Nc1ccc2c(c1)CC(n1nc(-c3cc(F)c4c(c3)NCCO4)c3c(N)ncnc31)CC2 (single isomer, unassigned; (-))
Result: 7.14

Q: What value of pIC50 has been recorded for this entry: Nc1ccc2c(c1)CC(n1nc(-c3cc(F)c4c(c3)NCCO4)c3c(N)ncnc31)CC2 (single isomer, unassigned; (+))
Result: 7.26

Q: What value of pIC50 has been recorded for this entry: Cc1ccc(-c2nn(C3Cc4ccccc4C3)c3ncnc(N)c23)cc1O
Result: 6.76

Q: What value of pIC50 has been recorded for this entry: Nc1ncnc2c1c(-c1cc(O)cc(Cl)c1)nn2C1Cc2ccccc2C1
Result: 8.40

Q: What value of pIC50 has been recorded for this entry: Nc1ccc2c(c1)CC(n1nc(-c3cc(F)c4c(c3)NCCO4)c3c(N)ncnc31)C2 (single isomer, unassigned; (-))
Result: 7.80
